Origin of values: patent US20110268818A1

- measured.target: NGAL (Homo sapiens, UniProt P80188)
- Construct: made in house; host or cells: E. coli BL-21
- Sequence (P80188 21-198): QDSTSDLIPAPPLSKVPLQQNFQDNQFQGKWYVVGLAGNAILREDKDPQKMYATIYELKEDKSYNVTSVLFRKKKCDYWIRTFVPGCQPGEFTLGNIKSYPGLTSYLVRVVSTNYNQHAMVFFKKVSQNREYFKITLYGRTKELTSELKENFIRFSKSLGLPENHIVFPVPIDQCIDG
- test: NGAL:siderophore:iron binding assay (retention on 10 kDa filter)
- measurement.parameters: apoNGAL 10 μM, 55Fe, compound 10 μM, pH 7.4, washed on 10 kDa filter
Entries are sorted into classes by NGAL: Chelator: Fe % Retention as follows: low end (below 6%), middle (6% to below 9%), high end (9% or more)

- compound: "Cc1cccc(O)c1O"
  measured.target: "NGAL (Homo sapiens, UniProt P80188)"
  discrete.label: "high end"
- compound: "N[C@@H](Cc1c[nH]c2ccccc12)C(=O)O"
  measured.target: "NGAL (Homo sapiens, UniProt P80188)"
  discrete.label: "low end"
- compound: "NC(=O)c1ccc[n+]([C@@H]2O[C@H](COP(=O)(O)OP(=O)(O)OC[C@H]3O[C@@H](n4cnc5c(N)ncnc54)[C@H](OP(=O)(O)O)[C@@H]3O)[C@@H](O)[C@H]2O)c1"
  measured.target: "NGAL (Homo sapiens, UniProt P80188)"
  discrete.label: "middle"
- compound: "O=C(O)c1ccc(O)c(O)c1 [3,4- Dihydroxybenzoic Acid]"
  measured.target: "NGAL (Homo sapiens, UniProt P80188)"
  discrete.label: "low end"
- compound: "COc1ccccc1O"
  measured.target: "NGAL (Homo sapiens, UniProt P80188)"
  discrete.label: "low end"
- compound: "O=C(O)c1cccc(O)c1O [2,3- Dihydroxybenzoic acid]"
  measured.target: "NGAL (Homo sapiens, UniProt P80188)"
  discrete.label: "high end"
- compound: "N[C@@H](Cc1ccccc1)C(=O)O"
  measured.target: "NGAL (Homo sapiens, UniProt P80188)"
  discrete.label: "middle"
- compound: "NCCc1cc(O)c(O)c(O)c1 [5-Hydroxydopamine]"
  measured.target: "NGAL (Homo sapiens, UniProt P80188)"
  discrete.label: "high end"
- compound: "O=C(/C=C/c1ccc(O)c(O)c1)OCCc1ccccc1"
  measured.target: "NGAL (Homo sapiens, UniProt P80188)"
  discrete.label: "middle"
- compound: "C=CC1=C(C)/C(=C/c2[nH]c(Cc3[nH]c(/C=C4\\NC(=O)C(C)=C4C=C)c(C)c3CCC(=O)O)c(CCC(=O)O)c2C)NC1=O"
  measured.target: "NGAL (Homo sapiens, UniProt P80188)"
  discrete.label: "low end"
- compound: "O=C(O)c1cc(=O)[nH]c(=O)[nH]1"
  measured.target: "NGAL (Homo sapiens, UniProt P80188)"
  discrete.label: "high end"
- compound: "O=C(/C=C/c1ccc(O)c(O)c1)O[C@H](Cc1ccc(O)c(O)c1)C(=O)O"
  measured.target: "NGAL (Homo sapiens, UniProt P80188)"
  discrete.label: "high end"
- compound: "O=C(O)/C=C(/CC(=O)O)C(=O)O [Cis-Aconitic acid]"
  measured.target: "NGAL (Homo sapiens, UniProt P80188)"
  discrete.label: "high end"
- compound: "O=C(O)/C=C/c1ccc(O)c(O)c1"
  measured.target: "NGAL (Homo sapiens, UniProt P80188)"
  discrete.label: "middle"
- compound: "COc1ccccc1OC"
  measured.target: "NGAL (Homo sapiens, UniProt P80188)"
  discrete.label: "low end"
- compound: "NC(=O)C1=CN([C@@H]2O[C@H](COP(=O)(O)OP(=O)(O)OC[C@H]3O[C@@H](n4cnc5c(N)ncnc54)[C@H](OP(=O)(O)O)[C@@H]3O)[C@@H](O)[C@H]2O)C=CC1"
  measured.target: "NGAL (Homo sapiens, UniProt P80188)"
  discrete.label: "low end"
- compound: "NC(Cc1ccc(O)c(O)c1)C(=O)O (racemic) [3,4-Dihydroxy-DL-phenylalanine]"
  measured.target: "NGAL (Homo sapiens, UniProt P80188)"
  discrete.label: "high end"
- compound: "CC(=O)NC(CC(=O)O)c1ccccc1 (racemic)"
  measured.target: "NGAL (Homo sapiens, UniProt P80188)"
  discrete.label: "low end"
- compound: "O=c1cc[nH]c(=O)[nH]1"
  measured.target: "NGAL (Homo sapiens, UniProt P80188)"
  discrete.label: "middle"
- compound: "NC(=O)NC1NC(=O)NC1=O (centres unmarked)"
  measured.target: "NGAL (Homo sapiens, UniProt P80188)"
  discrete.label: "middle"
- compound: "O=C(O)c1cccnc1"
  measured.target: "NGAL (Homo sapiens, UniProt P80188)"
  discrete.label: "low end"
- compound: "NC(=O)c1ccc[n+]([C@@H]2O[C@H](COP(=O)(O)OP(=O)(O)OC[C@H]3O[C@@H](n4cnc5c(N)ncnc54)[C@H](O)[C@@H]3O)[C@@H](O)[C@H]2O)c1"
  measured.target: "NGAL (Homo sapiens, UniProt P80188)"
  discrete.label: "high end"
- compound: "Cc1ncc(CO)c(C(=O)O)c1O"
  measured.target: "NGAL (Homo sapiens, UniProt P80188)"
  discrete.label: "high end"
- compound: "O=C(O)Cc1c[nH]c2ccc(O)cc12 [5-Hydroxy-indoleacetic acid]"
  measured.target: "NGAL (Homo sapiens, UniProt P80188)"
  discrete.label: "middle"
- compound: "Cc1ncc(CO)c(C=O)c1O"
  measured.target: "NGAL (Homo sapiens, UniProt P80188)"
  discrete.label: "low end"

====

- measured.target: NGAL (Homo sapiens, UniProt P80188)
- Construct: made in house; host or cells: E. coli BL-21
- test: NGAL:siderophore:iron binding assay (retention on 10 kDa filter)
- measurement.parameters: apoNGAL 10 μM, 55Fe, compound 10 μM, pH 7.4, washed on 10 kDa filter
Where a name gives a salt, the structure may show the parent alone.
The entries below are paired with their reported NGAL: Chelator: Fe % Retention.
measured.quantity: NGAL: Chelator: Fe % Retention (%)

- compound: "Oc1ccccc1O"
  measured.quantity: "NGAL: Chelator: Fe % Retention"
  unit.symbol: "%"
  obs.value: 56
- compound: "COc1cccc(C(=O)O)c1OC"
  measured.quantity: "NGAL: Chelator: Fe % Retention"
  unit.symbol: "%"
  obs.value: 6
- compound: "NCC(=O)c1ccc(O)c(O)c1 (racemic) [DL- Norepinephrine•HCl]"
  measured.quantity: "NGAL: Chelator: Fe % Retention"
  unit.symbol: "%"
  obs.value: 5

====

The entries below are paired with their reported NGAL: Chelator: Fe % Retention.
- measured.target: NGAL (Homo sapiens, UniProt P80188)
- Construct: made in house; host or cells: E. coli BL-21
- test: NGAL:siderophore:iron binding assay (retention on 10 kDa filter)
- measurement.parameters: apoNGAL 10 μM, 55Fe, compound 10 μM, pH 7.4, washed on 10 kDa filter
Counter-ions that a name gives are not always drawn.
measured.quantity: NGAL: Chelator: Fe % Retention (%)

- compound: "O=C(O)c1cccnc1C(=O)O [2,3-Pyridine-dicarboxylic acid]"
  obs.value: 6
- compound: "O=S1(=O)Oc2ccccc2O1 [Catechol cyclic sulfonate]"
  obs.value: 6
- compound: "C=CC1=C(C)C(/C=c2/[nH]/c(=C\\c3[nH]c(/C=C4\\NC(=O)C(C)=C4C=C)c(C)c3CCC(=O)O)c(CCC(=O)O)c2C)NC1=O (stereo not shown) [Biliverdin HCl]"
  obs.value: 9
- compound: "O=C(/C=C/c1ccc(O)c(O)c1)O[C@@H]1C[C@](O)(C(=O)O)C[C@@H](O)[C@H]1O [Chlorogenic acid]"
  obs.value: 6
